Parameter fraction unbound at 5 h: see the listing below.
- protocol notes: Protein binding in plasma (unknown origin) measured after 5 hrs by equilibrium dialysis method
- Type: ADME, cell-free
- settings: read-out: PPB (converted)
Give your answer as a number; write no unit.

Example entries and their recorded answers appear below.
fraction unbound at 5 h measured on O=c1nc(N2C[C@@H]3[C@H](C2)[C@H]3NCC2CCCCC2)sc2c([N+](=O)[O-])cc(C(F)(F)F)cc12 = 0.005

Memo: O=c1nc(N2CC3CCC2CN3CC2CCCCC2)sc2c([N+](=O)[O-])cc(C(F)(F)F)cc12 (stereo not given) , reported fraction unbound at 5 h: 0.001

The value of fraction unbound at 5 h measured for the compound O=c1nc(N2CCN(CC3CCCCC3)CC2)sc2c([N+](=O)[O-])cc(C(F)(F)F)cc12 [MACOZINONE] turned out to be 0.001

Entry under test: O=c1nc(N2CCC3(CC2)CC3)sc2c([N+](=O)[O-])cc(C(F)(F)F)cc12 . Its fraction unbound at 5 h was 0.006

Moving on to another compound below.
// O=c1nc(N2C[C@H]3C[C@@H]2CN3CC2CCCCC2)sc2c([N+](=O)[O-])cc(C(F)(F)F)cc12 : fraction unbound at 5 h value = 0.004

----------
- protocol notes: Terminal half life in specific pathogen free ICR mouse at 2 mg/kg, iv by LC/TSQ-MS analysis
- Assay type: ADME, organism-based
- settings: in vivo, read-out: beta t1/2 (converted)
experimental endpoint: half-life (min)
Value expressed in min; do not type the unit.

Field half-life (entry O=c1nc(N2C[C@@H]3[C@H](C2)[C@H]3NCC2CCCCC2)sc2c([N+](=O)[O-])cc(C(F)(F)F)cc12 ) reads 152

----------
- tested target: Decaprenylphosphoryl-beta-D-ribose oxidase (Mycobacterium tuberculosis (strain ATCC 25618 / H37Rv))
- protocol notes: Inhibition of Mycobacterium tuberculosis H37Rv DprE1 assessed as reduction in bacterial growth measured after 7 to 10 days by broth microdilution method
Listing: MIC of selected compounds
I only need the number, in µM, no unit after it.

Solved entries (count: 4):
Form: compound = O=c1nc(N2CC3CCC2CN3CC2CCCCC2)sc2c([N+](=O)[O-])cc(C(F)(F)F)cc12 (stereo not given) ; MIC = 0.032

Lab note: O=c1nc(N2C[C@H]3C[C@@H]2CN3CC2CCCCC2)sc2c([N+](=O)[O-])cc(C(F)(F)F)cc12 gave MIC of 0.064

O=c1nc(N2CC3(CCN(CC4CCCCC4)CC3)C2)sc2c([N+](=O)[O-])cc(C(F)(F)F)cc12 yielded MIC of 1.02

Please fill in: MIC reported for O=c1nc(N2CCC3(CCN(CC4CCCCC4)C3)C2)sc2c([N+](=O)[O-])cc(C(F)(F)F)cc12 (stereo not given) = 0.256

Read the next record carefully.
The compound identified as O=c1nc(N2CC3(CN(CC4CCCCC4)C3)C2)sc2c([N+](=O)[O-])cc(C(F)(F)F)cc12 registered its MIC at 0.256

----------
- protocol notes: Oral bioavailability in specific pathogen free ICR mouse at 10 mg/kg by LC/TSQ-MS analysis
- Type: ADME, organism-based
- settings: in vivo
experimental endpoint: bioavailability (%)
Express it in %; write the number only.

// O=c1nc(N2C[C@@H]3[C@H](C2)[C@H]3NCC2CCCCC2)sc2c([N+](=O)[O-])cc(C(F)(F)F)cc12 : bioavailability value = 27.4
